Reference source: patent US9220794B2

test_summary: physchem
study_conditions: pH 7.2
assay_metric: pKa
// response body must contain only the number

**Query** Reported pKa, compound S [H2S, Hydrogen sulfide] : ____
**Result** 7.1
